System: H3255
Assay: relative viability (nuclei count vs DMSO), 5 days (fraction); higher = more cells survive
Settings: first compound 0.002 µM
# relative viability values compiled below
Just the number.

Completed entries (count: 2):
| Compound | Experimental readout | Value observed |
| --- | --- | --- |
| CC(=O)O[C@@]12CO[C@@H]1C[C@H](O)[C@@]1(C)C(=O)[C@H](O)C3=C(C)[C@@H](OC(=O)[C@H](O)[C@@H](NC(=O)OC(C)(C)C)c4ccccc4)C[C@@](O)([C@@H](OC(=O)c4ccccc4)[C@H]21)C3(C)C [Docetaxel] + COc1cc2c(Oc3ccc(NC(=O)C4(C(=O)Nc5ccc(F)cc5)CC4)cc3F)ccnc2cc1OCCCN1CCOCC1 [Foretinib] (partner 0.25 µM) | relative viability | 0.66 |
| CC(=O)O[C@@]12CO[C@@H]1C[C@H](O)[C@@]1(C)C(=O)[C@H](O)C3=C(C)[C@@H](OC(=O)[C@H](O)[C@@H](NC(=O)OC(C)(C)C)c4ccccc4)C[C@@](O)([C@@H](OC(=O)c4ccccc4)[C@H]21)C3(C)C [Docetaxel] + O=C(CCCCCCC(=O)Nc1ccccc1)NO [Vorinostat] (partner 1 µM) | relative viability | 0.629 |

Below: the item to evaluate.
Supply measured relative viability of CC(=O)O[C@@]12CO[C@@H]1C[C@H](O)[C@@]1(C)C(=O)[C@H](O)C3=C(C)[C@@H](OC(=O)[C@H](O)[C@@H](NC(=O)OC(C)(C)C)c4ccccc4)C[C@@](O)([C@@H](OC(=O)c4ccccc4)[C@H]21)C3(C)C [Docetaxel] + CS(=O)(=O)N1CCN(Cc2cc3nc(-c4cccc5[nH]ncc45)nc(N4CCOCC4)c3s2)CC1 [Pictilisib] (partner 1 µM) in your reply.
0.272
